# System: TK-10
# Assay type: cell-based
# Stated conditions: TK-10, Renal; read-out: 50% lethal concentration (LC50)
Please provide measured CC50 for the entries that follow.
Give bare numbers, in µM.

Record excerpt, results attached:
C=C1CCC2C3(C)COC(c4cn(-c5ccccc5)nc4-c4cccc(Br)c4)OC3CCC2(C)C1CC=C1C(=O)OCC1O (centres unmarked) [1e]    40.4
C=C1CCC2C3(C)COC(c4cn(-c5ccccc5)nc4-c4cccc(Cl)c4)OC3CCC2(C)C1CC=C1C(=O)OCC1O (centres unmarked) [1d]    9.71
C=C1CCC2C3(C)COC(c4cn(-c5ccccc5)nc4-c4ccc(OC)cc4)OC3CCC2(C)C1CC=C1C(=O)OCC1O (centres unmarked) [1j]    8.77

Look up and report measured CC50 for this entry: C=C1CCC2C3(C)COC(c4cn(-c5ccccc5)nc4-c4ccccc4)OC3CCC2(C)C1CC=C1C(=O)OCC1O (centres unmarked) [1a] 6.46

###

# Tested on: SK-OV-3
# Stated conditions: SK-OV-3, Ovarian
Readout: log10 Total growth inhibition (TGI) (log10 of the value in µM)
Please interpret these as log10 of Total growth inhibition (TGI) where Total growth inhibition (TGI) is in µM.

C=C1CCC2C3(C)COC(c4cn(-c5ccccc5)nc4-c4cccc(F)c4)OC3CCC2(C)C1CC=C1C(=O)OCC1O (stereo not shown) [1c]    0.78
C=C1CCC2C3(C)COC(c4cn(-c5ccccc5)nc4-c4ccc(Br)cc4)OC3CCC2(C)C1CC=C1C(=O)OCC1O (stereo not shown) [1h]    0.92
C=C1CCC2C3(C)COC(c4cn(-c5ccccc5)nc4-c4ccc(OC)cc4)OC3CCC2(C)C1CC=C1C(=O)OCC1O (stereo not shown) [1j]    1.38
C=C1CCC2C3(C)COC(c4cn(-c5ccccc5)nc4-c4ccc(Cl)cc4)OC3CCC2(C)C1CC=C1C(=O)OCC1O (stereo not shown) [1g]    0.22
C=C1CCC2C3(C)COC(c4cn(-c5ccccc5)nc4-c4cccc(Br)c4)OC3CCC2(C)C1CC=C1C(=O)OCC1O (stereo not shown) [1e]    1.68
C=C1CCC2C3(C)COC(c4cn(-c5ccccc5)nc4-c4ccccc4)OC3CCC2(C)C1CC=C1C(=O)OCC1O (stereo not shown) [1a]    1.27
C=C1CCC2C3(C)COC(c4cn(-c5ccccc5)nc4-c4cccc(Cl)c4)OC3CCC2(C)C1CC=C1C(=O)OCC1O (stereo not shown) [1d]    1.52
C=C1CCC2C3(C)COC(c4cn(-c5ccccc5)nc4-c4ccc(F)cc4)OC3CCC2(C)C1CC=C1C(=O)OCC1O (stereo not shown) [1f]    0.74

Please report the measured log10 Total growth inhibition (TGI) for C=C1CCC2C3(C)COC(c4cn(-c5ccccc5)nc4-c4ccc(C)cc4)OC3CCC2(C)C1CC=C1C(=O)OCC1O (stereo not shown) [1i] 1.08

###

// endpoint GI50 / system OVCAR-5
Give bare numbers, in nM.

Required: GI50, one value per compound below.
1. C=C1CCC2C3(C)COC(c4cn(-c5ccccc5)nc4-c4ccc(Br)cc4)OC3CCC2(C)C1CC=C1C(=O)OCC1O (stereo not shown) [1h]
2. C=C1CCC2C3(C)COC(c4cn(-c5ccccc5)nc4-c4cccc(Cl)c4)OC3CCC2(C)C1CC=C1C(=O)OCC1O (stereo not shown) [1d]
3. C=C1CCC2C3(C)COC(c4cn(-c5ccccc5)nc4-c4ccc(C)cc4)OC3CCC2(C)C1CC=C1C(=O)OCC1O (stereo not shown) [1i]
4. C=C1CCC2C3(C)COC(c4cn(-c5ccccc5)nc4-c4cccc(F)c4)OC3CCC2(C)C1CC=C1C(=O)OCC1O (stereo not shown) [1c]
5. C=C1CCC2C3(C)COC(c4cn(-c5ccccc5)nc4-c4cccc([N+](=O)[O-])c4)OC3CCC2(C)C1CC=C1C(=O)OCC1O (stereo not shown) [1b]
6. C=C1CCC2C3(C)COC(c4cn(-c5ccccc5)nc4-c4ccc(F)cc4)OC3CCC2(C)C1CC=C1C(=O)OCC1O (stereo not shown) [1f]
7. C=C1CCC2C3(C)COC(c4cn(-c5ccccc5)nc4-c4ccc(OC)cc4)OC3CCC2(C)C1CC=C1C(=O)OCC1O (stereo not shown) [1j]
8. C=C1CCC2C3(C)COC(c4cn(-c5ccccc5)nc4-c4ccc(Cl)cc4)OC3CCC2(C)C1CC=C1C(=O)OCC1O (stereo not shown) [1g]

[1930, 1780, 1930, 1920, 2060, 1740, 1860, 1980]

Go through the items and report each one's GI50.
1. C=C1CCC2C3(C)COC(c4cn(-c5ccccc5)nc4-c4cccc(Br)c4)OC3CCC2(C)C1CC=C1C(=O)OCC1O (stereo not shown) [1e]
2. C=C1CCC2C3(C)COC(c4cn(-c5ccccc5)nc4-c4ccccc4)OC3CCC2(C)C1CC=C1C(=O)OCC1O (stereo not shown) [1a]

1850
1860

###

Assign CC50 to each entry below.
# Tested on: A549/ATCC
# Stated conditions: read-out: 50% lethal concentration (LC50), Non-Small Cell Lung

Consider the reported CC50 for these molecules:
C=C1CCC2C3(C)COC(c4cn(-c5ccccc5)nc4-c4ccc(Br)cc4)OC3CCC2(C)C1CC=C1C(=O)OCC1O (centres unmarked)    > 100 µM
C=C1CCC2C3(C)COC(c4cn(-c5ccccc5)nc4-c4ccccc4)OC3CCC2(C)C1CC=C1C(=O)OCC1O (centres unmarked)    > 100 µM
C=C1CCC2C3(C)COC(c4cn(-c5ccccc5)nc4-c4ccc(C)cc4)OC3CCC2(C)C1CC=C1C(=O)OCC1O (centres unmarked)    > 100 µM

Could you report CC50 for every entry in the following list?
1. C=C1CCC2C3(C)COC(c4cn(-c5ccccc5)nc4-c4cccc(F)c4)OC3CCC2(C)C1CC=C1C(=O)OCC1O (centres unmarked)
2. C=C1CCC2C3(C)COC(c4cn(-c5ccccc5)nc4-c4cccc(Cl)c4)OC3CCC2(C)C1CC=C1C(=O)OCC1O (centres unmarked)

["> 100 µM", "69.1 µM"]

I need CC50 for every entry listed below, if you could help.
1. C=C1CCC2C3(C)COC(c4cn(-c5ccccc5)nc4-c4cccc(Br)c4)OC3CCC2(C)C1CC=C1C(=O)OCC1O (centres unmarked)
2. C=C1CCC2C3(C)COC(c4cn(-c5ccccc5)nc4-c4ccc(Cl)cc4)OC3CCC2(C)C1CC=C1C(=O)OCC1O (centres unmarked)
3. C=C1CCC2C3(C)COC(c4cn(-c5ccccc5)nc4-c4ccc(F)cc4)OC3CCC2(C)C1CC=C1C(=O)OCC1O (centres unmarked)

> 100 µM
> 100 µM
51.5 µM

###

# System: HT29
# Stated conditions: read-out: 50% lethal concentration (LC50); HT29, Colon
For each entry below, report its CC50 value.

The following molecules have reported results that may help.
C=C1CCC2C3(C)COC(c4cn(-c5ccccc5)nc4-c4cccc(F)c4)OC3CCC2(C)C1CC=C1C(=O)OCC1O (stereo not drawn)    > 100 µM
C=C1CCC2C3(C)COC(c4cn(-c5ccccc5)nc4-c4ccccc4)OC3CCC2(C)C1CC=C1C(=O)OCC1O (stereo not drawn)    > 100 µM

Alright, here's another molecule for you.
Enter measured CC50, system HT29, for the molecule shown: C=C1CCC2C3(C)COC(c4cn(-c5ccccc5)nc4-c4ccc(Cl)cc4)OC3CCC2(C)C1CC=C1C(=O)OCC1O (stereo not drawn) > 100 µM

###

# Test system: HOP-62
# Stated conditions: HOP-62, Non-Small Cell Lung
Readout: Total growth inhibition (TGI) (µM)
Numbers only, in µM.

Illustrative cases are given below, each with its answer.
C=C1CCC2C3(C)COC(c4cn(-c5ccccc5)nc4-c4ccc(Br)cc4)OC3CCC2(C)C1CC=C1C(=O)OCC1O (stereo not drawn)    3.83
C=C1CCC2C3(C)COC(c4cn(-c5ccccc5)nc4-c4ccc(OC)cc4)OC3CCC2(C)C1CC=C1C(=O)OCC1O (stereo not drawn)    10.4

Let us examine a further case.
Specify reported Total growth inhibition (TGI) for the molecule shown: C=C1CCC2C3(C)COC(c4cn(-c5ccccc5)nc4-c4ccc(Cl)cc4)OC3CCC2(C)C1CC=C1C(=O)OCC1O (stereo not drawn) 4.95

###

Listed here: compounds with reported GI50 for MDA-MB-231.
One number for each entry, in µM.

Reference set, count: 3
C=C1CCC2C3(C)COC(c4cn(-c5ccccc5)nc4-c4cccc(F)c4)OC3CCC2(C)C1CC=C1C(=O)OCC1O (stereo not shown)    1.72
C=C1CCC2C3(C)COC(c4cn(-c5ccccc5)nc4-c4cccc(Br)c4)OC3CCC2(C)C1CC=C1C(=O)OCC1O (stereo not shown)    1.68
C=C1CCC2C3(C)COC(c4cn(-c5ccccc5)nc4-c4cccc([N+](=O)[O-])c4)OC3CCC2(C)C1CC=C1C(=O)OCC1O (stereo not shown)    1.84

Now take the following compound into account.
Report GI50, nothing else, for this compound: C=C1CCC2C3(C)COC(c4cn(-c5ccccc5)nc4-c4ccc(Br)cc4)OC3CCC2(C)C1CC=C1C(=O)OCC1O (stereo not shown) 1.59
